# assayName: Antioxidant activity assessed as galvinoxyl free radical scavenging activity after 19 hrs
# Type: functional
pIC50: −log10 of the molar value.
valueType: pIC50

// worked examples, pIC50 included
- chemicalStructure: "COc1ccc(/C=C/C(O)=C/C(=O)/C=C/c2ccc(O)c(CN(C)C)c2)cc1"
  reportedMeasurement: 4.92
- chemicalStructure: "COc1ccc(/C=C/C(O)=C/C(=O)/C=C/c2ccc(O)c(CN(C)C)c2)cc1OC"
  reportedMeasurement: 4.56
- chemicalStructure: "Cc1ccc(/C=C/C(O)=C/C(=O)/C=C/c2ccc(O)c(CN(C)C)c2)cc1"
  reportedMeasurement: 4.66
- chemicalStructure: "CN(C)Cc1cc(/C=C/C(=O)/C=C(O)/C=C/c2ccc(O)c(CN(C)C)c2)ccc1O"
  reportedMeasurement: 5.31
- chemicalStructure: "CN(C)Cc1cc(/C=C/C(=O)/C=C(O)/C=C/c2ccc(O)cc2)ccc1O"
  reportedMeasurement: 5.12

A. CN(C)Cc1cc(/C=C/C(=O)/C=C(O)/C=C/c2ccc(F)cc2)ccc1O
B. CN(C)Cc1cc(/C=C/C(=O)/C=C(O)/C=C/c2cccc(O)c2)ccc1O
[in] Record comparison, field pIC50: mark the lower of A and B . Respond using the label that marks the chosen record.
[out] A
(A: 4.65, B: 5.16)

----------
# assayName: Aqueous solubility of the compound
# Assay type: physicochemical
valueType: solubility (µg/mL)

A. CN(C)Cc1cc(/C=C/C(=O)/C=C(O)/C=C/c2ccc(O)c(CN(C)C)c2)ccc1O.Cl.Cl
B. COc1cc(/C=C/C(O)=C/C(=O)/C=C/c2ccc(O)c(CN(C)C)c2)ccc1O.Cl
[in] Task for the reader: decide whether A or B has the larger solubility. Pick one; state its label.
[out] A
